Target: T1, Guanyl-specific ribonuclease T1 (Aspergillus oryzae (strain ATCC 42149 / RIB 40), UniProt P00651)
T1 sequence (P00651 whole entry): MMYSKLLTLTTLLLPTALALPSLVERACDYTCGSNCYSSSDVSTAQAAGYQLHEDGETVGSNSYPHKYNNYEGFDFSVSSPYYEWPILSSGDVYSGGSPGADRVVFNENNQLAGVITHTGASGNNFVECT
Assay: RNase T1 inhibitors, dose response, counter-screen for TPT1 inhibitor project, biochemical, fluorescence polarization, 1536-well (AID 2167)
measured metric: IC50

In plain terms, Cc1ccc2nc(N=NCc3ccc([N+](=O)[O-])o3)nc(-c3ccccc3)c2c1 has a documented IC50 of > 55.7 µM
